# Target entity: CHIKV pE2-E1 (E3-E2-E1) of the CHIKV-LR strain (Chikungunya virus La Reunion 2006 OPY-1 …, strain)
# Method notes: cell-based or functional assay
Overview of reported EC50 of neutralisation of CHIKV-LR (FRNT on NIH 3T3 cells) across a group of binders:
// units = µg/mL; emit number, no label

Solved entries (count: 2):
CHK-166 (mouse monoclonal antibody) (antibody, V domains shown) VH: EVRLVESGGGLEQPGGSLKLSCAASGFTFSDYFMYWVRQTPEKRLEWVAYISNGGISTFYSDAVKGRFTISRDNARNTLYLQMSRLKSEDTAIYYCVRQVYGQGYFDYWGQGTTLAVSS VL: QIVLIQSPAIMSASLGERVTMTCTASSSVSSSYLHWYQQKPGSSPKLWIYSSFSLASGVPARFSGSGSGTSYSLTISTMEAEDAATYYCHQYLRSPWTFGGGSKLEIK	0.202
CHK-263 (mouse monoclonal antibody) (antibody, V domains shown) VH: QVQLQQSGAELVKPGASVKISCKASGYAFSSYWMNWVKQRPGKGLEWIGQIYPGDGDTNYNGKFKGKATLTADKSSSTAYMQLSSLTSEDSAVYFCARGGLTIDYWGQGTTLTVSS VL: DIVLTQSPATLSVTPGDSVSLSCRASQSISDNLHWYQQKSHESPGLLIKYASQSISGIPSRFSGSGSGTDFTLSINSVETEDFGMYFCQQSNSWPYTFGGGTKLEIK	0.002

*Q* Report EC50 of neutralisation of CHIKV-LR (FRNT on NIH 3T3 cells) for CHK-102 (mouse monoclonal antibody) (antibody, V domains shown) VH: QVQLQQSGAELVKPGASVKISCKTSGYAFSSFWMHWVKQRPGKGLEWIGQIYPGDGDTNYNGKFKDKATLTADKSSNTAYMQLTSLTSEDSAVYFCARNLLFDYWGQGTTLTVSS VL: EILMTQSPAILSVSPGERVSFSCRASQSIGSNIHWYQQRTNGSPRLLIKYASESISGIPSRFSGSGSGTDFTLSINSVESEDIADYYCQQNNIWPFTFGSGTKLEIK please.
*A* 0.03

*Q* Now this one: CHK-152 (mouse monoclonal antibody) (antibody, V domains shown, mouse VH of CHK-152; mouse IgG heavy-chain constant region; mouse VL of CHK-152; mouse light-chain constant region; also called murine CHK-152; mouse CHK-152) VH: QVQLQQPGAALVKPGASAMMSCKASGYTFTSYWITWVKQRPGQGLEWIGDIYPGTGRTIYKEKFKTKATLTVDTSSSTAFMQLNSLTSEDSAVYYCARGYGSPYYALDYWGQGTSVTVSS VL: DIVLTQSPASLAVSQGQRATISCKASQSVDYDGDSYVNWYQQKPGQSPKLLIYDASNLESGIPARFSGSGSGTDFTLNIHPVEEEDVATYYCQESNEDPRTFGGGTKLEIK
*A* 0.001

Every entry's value here was drawn from paper PMC3630103.
